Counter-ions that a name gives are not always drawn.
Below, each of the compounds is paired with its reported melting point value.

Compound	melting point
C1=CC2(c3ccc(-c4cc[nH]n4)nc3)CCN(C1)C2 (stereo not drawn) (as salt: HBr)	273 to 275 °C
C1=CC2(c3ccc(-c4cscn4)nc3)CCN(C1)C2 (stereo not drawn) (as salt: HBr)	272 to 274 °C
Cn1cc(-c2ccc(C34CCCN(CC3)C4)cn2)cn1 (racemic)	138 to 140 °C
CCCn1cc(-c2ccc(C34C=CCN(CC3)C4)cn2)cn1 (stereo not drawn) (as salt: HBr)	190 to 192 °C
C1=CC2(c3ccc(-c4ncc[nH]4)nc3)CCN(C1)C2 (single isomer, unassigned) (as salt: HBr)	234 to 236 °C
CC(C)Cn1cc(-c2ccc(C34C=CCN(CC3)C4)cn2)cn1 (stereo not drawn) (as salt: HBr)	104 to 106 °C

---

# Study Target: nicotinic receptors containing the α7 subunit (Rattus norvegicus, UniProt Q05941)
# Sequence (Q05941 23-502): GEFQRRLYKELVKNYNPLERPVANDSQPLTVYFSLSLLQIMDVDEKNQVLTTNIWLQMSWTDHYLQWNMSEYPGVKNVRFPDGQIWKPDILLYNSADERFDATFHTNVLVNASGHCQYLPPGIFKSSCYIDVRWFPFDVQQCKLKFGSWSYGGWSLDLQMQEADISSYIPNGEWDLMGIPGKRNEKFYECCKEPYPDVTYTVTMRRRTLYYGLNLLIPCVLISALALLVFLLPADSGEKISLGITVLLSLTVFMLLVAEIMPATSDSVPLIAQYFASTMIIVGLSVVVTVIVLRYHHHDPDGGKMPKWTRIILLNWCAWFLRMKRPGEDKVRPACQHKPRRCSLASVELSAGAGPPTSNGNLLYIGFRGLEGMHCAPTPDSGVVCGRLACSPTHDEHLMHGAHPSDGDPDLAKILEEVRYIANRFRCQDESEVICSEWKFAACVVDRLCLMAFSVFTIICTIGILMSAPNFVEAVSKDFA
# Assay Summary: biochemical
# Assay type: binding
# Condition Details: read-out: IC50 α7
Observed Property: IC50 (µM)

Compound	Observed Property	Meas Value
C1=CC2(c3ccc(-n4ccnc4)nc3)CCN(C1)C2 (single isomer, unassigned)	IC50	0.083

---

# Study Target: nicotinic receptors containing the α7 subunit (Rattus norvegicus)
# Assay Summary: biochemical
# Type: binding

Compound	Measure Unit	IC50
C1=CC2(c3ccc(-c4ncc[nH]4)nc3)CCN(C1)C2 (single isomer, unassigned) [Compound 14]	µM	0.099
C1=CC2(c3ccc(-c4c[nH]cn4)nc3)CCN(C1)C2 (single isomer, unassigned) [Compound 9]	µM	0.3
